Origin of values: PubChem BioAssay (Tox21)

Method Summary: qHTS assay to identify small molecule agonists of the sonic hedgehog signaling (Shh) pathway - cell viability counter screen (AID 1259366); further: nearly all actives have a fitted effect of over 50% in size
Experimental Conditions: NIH/3T3 Gli1-Luc viability, CellTiter-Fluor, 24 h; series mostly up to 92.4 µM
Inconclusive results are not listed. Active and inactive are the calls of the source. The call rests on the fitted dose curve; in most records, active means well fitted cell-killing curve with a large enough effect in the repeat runs; inconclusive means weak or mixed curves, or effect the other way; inactive means flat fitted curve, though single readings scatter.
Quantity: outcome

{"Chemical Smiles": "NNc1nc(-c2ccccc2)cs1", "Reported": "inactive"}
{"Chemical Smiles": "CCCC/C=C/CCCCO", "Reported": "inactive"}
{"Chemical Smiles": "Clc1ccc2cc3ccccc3cc2c1", "Reported": "inactive"}

====

Target System: Nuclear receptor subfamily 1 group I member 2 (Homo sapiens)
Method Summary: Human pregnane X receptor (PXR) small molecule agonists, qHTS assay (AID 1346982); further: nearly all actives have a fitted effect of over 35% in size
Experimental Conditions: PXR-Luc HepG2, CYP3A4 luciferase reporter, 24 h; series mostly up to 92.4 µM
Inconclusive results are not listed. Activity calls are given as the source filed them. The call rests on the fitted dose curve; in most records, active means well fitted activation curve with a large enough effect in the repeat runs; inconclusive means weak or mixed curves; inactive means no such curve, though single readings can be large or run the other way.
Output constraint: value belongs to YES for active, NO for inactive

{"Compound": "CCC(C)(C)C1CCCCC1OC(C)=O (centres undefined)", "Classification": "NO"}

Query string: Called result for `CN(C)[C@@H]1C(=O)C(C(N)=O)=C(O)[C@@]2(O)C(=O)C3=C(O)c4c(O)cccc4C[C@H]3C[C@@H]12`
Result string: NO

Query string: Called result for `COc1ccc(C(=O)/C(Br)=C\C(=O)O)cc1`
Result string: YES

Query string: Called result for `N/C(=N\N=C\c1ccc(Cl)cc1)N/N=C/c1ccc(Cl)cc1`
Result string: YES

Query string: Called result for `CNCc1cc(F)ccc1Oc1ccc(Cl)c(Cl)c1`
Result string: NO

Query string: Called result for `CCCCCCCCCCn1cc[n+](CCCCCCCCCC)c1C`
Result string: YES

Query string: Called result for `O=C(c1ccc(F)cc1)C1CCN(CCn2c(=O)[nH]c3ccccc3c2=O)CC1`
Result string: NO

Query string: Called result for `Cn1cc(C(=O)[C@@H]2CCc3nc[nH]c3C2)c2ccccc21`
Result string: NO

Query string: Called result for `C[C@@H]1C[C@H]2[C@@H]3CCC4=CC(=O)C=C[C@]4(C)[C@@]3(Cl)[C@@H](O)C[C@]2(C)[C@@]1(OC(=O)c1ccco1)C(=O)CCl`
Result string: YES

Query string: Called result for `CC(C)(C)NC(=O)[C@@H]1C[C@@H]2CCCC[C@@H]2CN1C[C@@H](O)[C@H](Cc1ccccc1)NC(=O)[C@H](CC(N)=O)NC(=O)c1ccc2ccccc2n1`
Result string: YES

Query string: Called result for `Cc1cc(=O)oc2cc(N(C)C)ccc12`
Result string: YES

Query string: Called result for `Cc1[nH]cnc1C[C@H]1CCc2c(C)c3ccccc3n2C1=O`
Result string: YES

Query string: Called result for `CCOc1ccc2nc3cc(N)ccc3c(N)c2c1`
Result string: NO

Query string: Called result for `Cc1cc(O)c2ccccc2c1O`
Result string: NO

====

Target System: Luciferin 4-monooxygenase (Photinus pyralis)
Method Summary: qHTS assay to identify small molecule inhibitors of firefly luciferase (AID 1224835); further: nearly all actives have a fitted effect of over 25% in size; further: potency means the concentration at half of the fitted maximal effect
Experimental Conditions: purified P. pyralis luciferase, luminescence inhibition; series mostly up to 115 µM
Records with an inconclusive call do not appear. Calls of active or inactive are those of the source. Calls come from the whole dose curve; as a rule, active = well fitted inhibition curve with a large enough effect in the repeat runs; inconclusive = weak or mixed curves; inactive = flat fitted curve, though single readings scatter.
Quantity: Potency

{"Compound": "CN(C/C=C/C#CC(C)(C)C)Cc1cccc2ccccc12", "Target System": "Luciferin 4-monooxygenase (Photinus pyralis)", "Potency": "inactive"}
{"Compound": "C[C@@H]1C[C@H]2[C@@H]3CCC4=CC(=O)C=C[C@]4(C)[C@@]3(Cl)[C@@H](O)C[C@]2(C)[C@@]1(OC(=O)c1ccco1)C(=O)CCl", "Target System": "Luciferin 4-monooxygenase (Photinus pyralis)", "Potency": "inactive"}
{"Compound": "CCCN(CCC)C(=O)C(CCC(=O)OCCCN1CCN(CCOC(=O)Cc2c(C)n(C(=O)c3ccc(Cl)cc3)c3ccc(OC)cc23)CC1)NC(=O)c1ccccc1 (stereo unspecified)", "Target System": "Luciferin 4-monooxygenase (Photinus pyralis)", "Potency": "inactive"}
{"Compound": "COc1cc(/C=C/C(=O)O[C@H]2CC[C@]34C[C@]35CC[C@]3(C)[C@@H]([C@H](C)CCC=C(C)C)CC[C@@]3(C)[C@@H]5CC[C@H]4C2(C)C)ccc1O", "Target System": "Luciferin 4-monooxygenase (Photinus pyralis)", "Potency": "inactive"}
{"Compound": "Cc1cccc(N(C)C(=S)Oc2ccc3c(c2)C2CCC3C2)c1 (stereo unspecified)", "Target System": "Luciferin 4-monooxygenase (Photinus pyralis)", "Potency": "inactive"}
{"Compound": "Cc1ccc(-n2nc(C(C)(C)C)cc2NC(=O)Nc2ccc(OCCN3CCOCC3)c3ccccc23)cc1", "Target System": "Luciferin 4-monooxygenase (Photinus pyralis)", "Potency": "inactive"}
{"Compound": "CCCCC(CC)CN=C(N)NC(N)=NCCCCCCN=C(N)NC(N)=NCC(CC)CCCC (stereo unspecified)", "Target System": "Luciferin 4-monooxygenase (Photinus pyralis)", "Potency": "inactive"}
{"Compound": "CCCCCCCCCCCCCC[P+](CCCC)(CCCC)CCCC (tested in a mixture with another compound)", "Target System": "Luciferin 4-monooxygenase (Photinus pyralis)", "Potency": "inactive"}

// field: Potency; key: `O=C(O)c1c(Cl)cccc1Cl` ; value = inactive

// field: Potency; key: `CCCCCCCCCCCCCCCC(=O)OC[C@H](O)[C@H]1OC(=O)C(O)=C1O` ; value = 63.3 µM (active)

// field: Potency; key: `CCCCCCCCCCCCCCCS(=O)(=O)Oc1ccccc1` ; value = inactive

// field: Potency; key: `Clc1ccccc1C(c1ccccc1)(c1ccccc1)n1ccnc1` ; value = inactive

// field: Potency; key: `Cc1cc(O)c(Cl)c(C)c1Cl` ; value = inactive

// field: Potency; key: `Cc1cc(O)c(C(C)(C)C)cc1Sc1cc(C(C)(C)C)c(O)cc1C` ; value = inactive

// field: Potency; key: `Nc1ccc(N)c2ccccc12` ; value = inactive

// field: Potency; key: `CCCC(c1cc(C(C)(C)C)c(O)cc1C)c1cc(C(C)(C)C)c(O)cc1C` ; value = inactive

====

Method Summary: qHTS assay to identify small molecule HDAC inhibitors - cell viability counter screen (AID 1259365); further: nearly all actives have a fitted effect of over 50% in size
Experimental Conditions: HCT-116 viability, CellTiter-Glo ATP luminescence, 2 h; series mostly up to 92.4 µM
The source made the active and inactive calls. The call rests on the fitted dose curve; in most records, active means well fitted cell-killing curve with a large enough effect in the repeat runs; inconclusive means weak or mixed curves, or effect the other way; inactive means flat fitted curve, though single readings scatter.
Output constraint: value belongs to yes (active), no (inactive)

Query string: Called result for `O=S1(=O)CC(Cl)(Cl)C(Cl)(Cl)C1`
Result string: yes

Query string: Called result for `CCOC(=O)c1nc(C(Cl)(Cl)Cl)n(-c2ccc(Cl)cc2Cl)n1`
Result string: no

Query string: Called result for COC(=O)C1=C(C)NC(C)=C(C(=O)OCC(C)C)C1c1ccccc1[N+](=O)[O-] (stereo unspecified)
Result string: no

Query string: Called result for O=C(OCC1CO1)C1CCCCC1C(=O)OCC1CO1 (stereo unspecified)
Result string: no

Query string: Called result for `C[C@@H]1C[C@H]2[C@@H]3CCC4=CC(=O)C=C[C@]4(C)[C@@]3(Cl)[C@@H](O)C[C@]2(C)[C@@]1(OC(=O)c1ccco1)C(=O)CCl`
Result string: no

Query string: Called result for `O=C(Oc1ccccc1)c1ccccc1C(=O)Oc1ccccc1`
Result string: no

====

Method Summary: qHTS assay to identify small molecule antagonists of the thyroid receptor (TR) signaling pathway (AID 743065); further: nearly all actives have a fitted effect of over 55% in size
Experimental Conditions: GH3.TRE-Luc, T3-stimulated luciferase inhibition, 23.5 h; series mostly up to 70.3 µM
Results filed as inconclusive are left out. Activity calls are given as the source filed them. The call rests on the fitted dose curve; in most records, active means well fitted inhibition curve with a large enough effect in the repeat runs; inconclusive means weak or mixed curves; inactive means no such curve, though single readings can be large or run the other way.
Output constraint: value belongs to active, inactive

Examples with answers:
{"Chemical Smiles": "O=[N+]([O-])c1cc(Cl)c(Cl)c(Cl)c1Cl", "Classification": "active"}
{"Chemical Smiles": "CCCN(CCC)c1c([N+](=O)[O-])cc(C(F)(F)F)c(N)c1[N+](=O)[O-]", "Classification": "active"}
{"Chemical Smiles": "O=C(NO)C1(NS(=O)(=O)c2ccc(Oc3ccc(F)cc3)cc2)CCOCC1", "Classification": "inactive"}
{"Chemical Smiles": "CCCCCCCC/C=C/CCCCCCCC1=NCCN1CCO", "Classification": "active"}
{"Chemical Smiles": "c1ccc(CSCc2ccccc2)cc1", "Classification": "inactive"}
{"Chemical Smiles": "Cc1[nH]nc2c1N=C(c1ccccc1Cl)c1cc([N+](=O)[O-])ccc1N2", "Classification": "active"}
{"Chemical Smiles": "O=C(Nc1cccc(Cl)c1)OCC#CCCl", "Classification": "active"}
{"Chemical Smiles": "Cc1cc(=O)oc2cc(N(C)C)ccc12", "Classification": "inactive"}
{"Chemical Smiles": "CCC1=C[C@@H]2CN(C1)Cc1c([nH]c3ccccc13)[C@@](C(=O)OC)(c1cc3c(cc1OC)N(C)[C@H]1[C@@](O)(C(=O)OC)[C@H](OC(C)=O)[C@]4(CC)C=CCN5CC[C@]31[C@@H]54)C2", "Classification": "active"}
{"Chemical Smiles": "CCCCCCCCCCC=O", "Classification": "inactive"}

Turning now to a further record.
Query string: Called result for `O=C1CCCCCN1SSN1CCCCCC1=O`
Result string: active
